Experimental system: Btk enzyme (His-Btk) (Homo sapiens (Human), UniProt Q06187)
Sequence (Q06187 whole entry): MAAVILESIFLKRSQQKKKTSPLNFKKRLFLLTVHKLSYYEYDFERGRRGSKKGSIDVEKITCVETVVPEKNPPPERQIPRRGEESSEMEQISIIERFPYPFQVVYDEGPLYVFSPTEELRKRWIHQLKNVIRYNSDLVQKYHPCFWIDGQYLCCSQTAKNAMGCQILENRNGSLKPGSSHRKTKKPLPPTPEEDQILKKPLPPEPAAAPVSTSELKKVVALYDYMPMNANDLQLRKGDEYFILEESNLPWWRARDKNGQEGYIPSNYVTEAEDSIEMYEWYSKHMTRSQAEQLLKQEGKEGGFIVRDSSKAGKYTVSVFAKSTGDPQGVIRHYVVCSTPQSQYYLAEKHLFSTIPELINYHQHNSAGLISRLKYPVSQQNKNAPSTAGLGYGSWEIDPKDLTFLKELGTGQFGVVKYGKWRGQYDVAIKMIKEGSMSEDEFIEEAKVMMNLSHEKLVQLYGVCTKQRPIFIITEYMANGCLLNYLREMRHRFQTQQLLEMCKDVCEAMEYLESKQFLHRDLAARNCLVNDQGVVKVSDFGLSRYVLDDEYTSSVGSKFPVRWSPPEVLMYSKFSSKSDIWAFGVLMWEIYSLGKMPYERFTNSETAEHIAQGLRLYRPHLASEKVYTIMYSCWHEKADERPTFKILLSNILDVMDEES
Assay info: Btk enzyme activity, IMAP fluorescence polarization assay (Assay Method A)
pEC50: −log10 of the molar value. Structures can show the parent of a compound that is named as a salt.
Readout: pEC50

{"Compound": "Cc1nc(-c2ccc(C(=O)Nc3cc(C(F)(F)F)ccn3)cc2)c2c(N)ncc(C(=O)NCc3ccccc3)n12", "Test result": "6.00 to 7.00"}
{"Compound": "COCCC(=O)N1CCC[C@@H](c2nc(-c3ccc(C(=O)Nc4ccccn4)cc3C)c3c(N)nccn23)C1 [Example 285, TFA salt]", "Test result": "7.00 to 8.00"}
{"Compound": "Nc1nccn2c(N3CCCC(C(=O)N4CCOCC4)C3)nc(-c3ccc(C(=O)Nc4ccccn4)cc3)c12 (stereo not drawn) [Example 229, TFA salt]", "Test result": "7.00 to 8.00"}

Parameters: items (list). Returns: pEC50 for each item.
1. Nc1nccn2c([C@@H]3CCCN(C(=O)C4(O)CC4)C3)nc(-c3ccc(C(=O)Nc4ccccn4)cc3)c12
2. Nc1nccn2c1c(-c1ccc(C(=O)Nc3ccccn3)cc1)nc2[C@H]1CC[C@H](O)CC1
3. Nc1nccn2c1c(-c1ccc(C(=O)Nc3cc(N4CCCC4)ccn3)cc1)nc2[C@H]1CC[C@H](O)CC1
4. CSCCC(=O)N1C[C@H](c2nc(-c3ccc(C(=O)Nc4cc(C(F)(F)F)ccn4)cc3)c3c(N)nccn23)CC[C@H]1C (relative stereo) [Example 187, TFA salt]
5. CN(C)C(=O)C(=O)N1CCC[C@@H](c2nc(-c3ccc(C(=O)Nc4cc(C5CC5)ccn4)cc3)c3c(N)nccn23)C1
6. CCc1cnc(NC(=O)c2ccc(-c3nc([C@H]4CC[C@@H](OC)CC4)n4ccnc(N)c34)cc2)s1
7. CN(C)C1(C(=O)N2CCC[C@@H](c3nc(-c4ccc(C(=O)Nc5cc(C(F)(F)F)ccn5)cc4)c4c(N)nccn34)C2)CCC1

Response:
["7.00 to 8.00", "7.00 to 8.00", "7.00 to 8.00", "7.00 to 8.00", "7.00 to 8.00", "7.00 to 8.00", "7.00 to 8.00"]

* * *

I'd be grateful if you could share measured EC50 for these entries.
Experimental system: Btk enzyme (His-Btk) (Homo sapiens (Human), UniProt Q06187)
Assay info: Btk enzyme activity, IMAP fluorescence polarization assay (Assay Method A)

{"Molecule": "Cc1noc([C@H]2C[C@@H]2C(=O)N2CCC[C@@H](c3nc(-c4ccc(C(=O)Nc5cc(C(F)(F)F)ccn5)cc4)c4c(N)nccn34)C2)n1", "EC50": "< 10 nM"}

Parameters: items (list). Returns: EC50 for each item.
1. CCC(=O)N1CCC[C@@H](c2nc(-c3ccc(C(=O)Nc4cc(C5CC5)ccn4)cc3)c3c(N)nccn23)C1
2. CCC(=O)N1CCC[C@@H](c2nc(-c3ccc(C(=O)Nc4cc(C#N)ccn4)cc3)c3c(N)nccn23)C1
3. Nc1ncnc2c1c(-c1ccc(C(=O)Nc3cc(C(F)(F)F)ccn3)cc1)nn2[C@@H]1CCCN(C(=O)C(Cl)(Cl)Cl)C1

Response:
1. < 10 nM
2. < 10 nM
3. 10 to 100 nM
